- Tested on: P388
- Assay Protocol: Optimal dose administered as a single dose by intraperitoneal inoculation of 10 X E6 murine leukemia P388 cell lines.
- Type: functional, cell-based
- Test Conditions: Mus musculus
Observation Type: OD (mg/kg)
Write the value in mg/kg as a bare number.

Compound | Value Unit | Readout Number
CN(C)CCNC(=O)c1ccc(NCCCc2ccc(N(CCCl)CCCl)cc2)c2cc3ccccc3nc12 | mg/kg | 13.3

OD in this record for COc1cc(NS(C)(=O)=O)ccc1Nc1ccc(C(=O)NCCCc2ccc(N(CCCl)CCCl)cc2)c2nc3ccccc3cc12 : 65

The compound listed as O=C(O)CCCc1ccc(N(CCCl)CCCl)cc1 [CHLORAMBUCIL] has a reported OD of 225

The reported value for CCN(CCCl)c1ccc(CCCNC(=O)c2ccc(NCCCc3ccc(N(CC)CCCl)cc3)c3cc4ccccc4nc23)cc1 in terms of OD is 45

* * *

- Tested on: P388
- Assay Protocol: In vitro cytotoxicity against murine leukemia P388 cell line.
- Format: functional, cell-based
- Test Conditions: Mus musculus
Listed here are molecules together with their documented IC50.
State the answer as a number, implicitly in nM.

Smiles Repr | Readout Number
CCN(CCCl)c1ccc(SCCNC(=O)c2ccc(NCCSc3ccc(N(CC)CCCl)cc3)c3cc4ccccc4nc23)cc1 | 550

For record CCN(CCCl)c1ccc(CCCNC(=O)c2ccc(NCCCc3ccc(N(CC)CCCl)cc3)c3cc4ccccc4nc23)cc1 the listed IC50 is 290

# molecule COc1cc(NS(C)(=O)=O)ccc1Nc1ccc(C(=O)NCCCc2ccc(N(CCCl)CCCl)cc2)c2nc3ccccc3cc12 ; its IC50 = 180

get_value(item= CN(C)CCNC(=O)c1ccc(NCCCc2ccc(N(CCCl)CCCl)cc2)c2cc3ccccc3nc12 , readout=IC50) returns 60

* * *

- Test system: UV4
- Assay Protocol: Hypersensitivity factor obtained from in vitro cytotoxicities against Chinese hamster ovary derived AA8 / UV4 cell lines
- Assay type: functional, cell-based
- Test Conditions: Cricetulus griseus
Reported values of HF for individual entries
Just the number, please, no unit after it.

Worked set:
Smiles Repr | HF
O=C(O)CCCc1ccc(N(CCCl)CCCl)cc1 | 58
CCN(CCCl)c1ccc(SCCNC(=O)c2ccc(NCCSc3ccc(N(CC)CCCl)cc3)c3cc4ccccc4nc23)cc1 | 7.4
CN(C)CCNC(=O)c1ccc(NCCCc2ccc(N(CCCl)CCCl)cc2)c2cc3ccccc3nc12 | 19

Reported HF of CCN(CCCl)c1ccc(CCCNC(=O)c2ccc(NCCCc3ccc(N(CC)CCCl)cc3)c3cc4ccccc4nc23)cc1 : 5.4
